- System: U937
- run-description: NucView caspase 3 activity assay by flow cytometry
- Format: cell-based, human
- condition-info: Homo sapiens, U-937, 24 h, read-out: AP50 (50% induction of apoptosis), Caspase 3 activity assay (C3)
pEC50: −log10 of the molar value.
attribute-measured: pEC50

>  <compound>
O=c1c(O)c(-c2ccc(O)c(O)c2)oc2cc(O)cc(O)c12 [Quercetin]

>  <pEC50>
4.30

$$$$
>  <compound>
O=c1cc(-c2ccc(O)cc2)oc2cc(O)cc(O)c12 [Apigenin]

>  <pEC50>
4.35

$$$$
>  <compound>
O=C1c2cccc(O)c2C(=O)c2c(O)cc(CO)cc21 [Aloe - Emodin, Aloe-emodin]

>  <pEC50>
4.30

$$$$
>  <compound>
O=c1cc(-c2ccccc2)oc2cc(O)cc(O)c12 [Chrysin]

>  <pEC50>
3.82

$$$$

[a] C(=C\c1ccccc1)/c1ccccc1 [Trans-Stilbene, Trans-stilbene]
[b] O=C(O)c1cc(O)c2c(c1)C(=O)c1cccc(O)c1C2=O [Rhein]
[c] Cc1cc(O)c2c(c1)C(=O)c1cc(O)cc(O)c1C2=O [Emodin]
Ranking field: pEC50; order: falling. Output the labels ranked as instructed. c, b, a
